# Tested on: Escherichia coli IAI1
# test.details: growth AUC relative to DMSO control (median of replicates) (fraction); higher = more growth (less inhibition), active = hit call of the paper
# condition.info: 20 µM; 24 h
measure.name: growth AUC
Write no unit; give the number alone.

Solved cases (2 shown):
>  <compound>
CCCCN(CC)c1c([N+](=O)[O-])cc(C(F)(F)F)cc1[N+](=O)[O-]

>  <tgt>
Escherichia coli IAI1

>  <growth AUC>
1

$$$$
>  <compound>
CCCSP(=O)(OCC)SCCC

>  <tgt>
Escherichia coli IAI1

>  <growth AUC>
0.987

$$$$

As a next step, examine the compound that follows.
// returns reported growth AUC for input CCOP(=S)(OCC)SCCS(=O)CC (stereo not drawn) 0.98

----------
# Test system: Parabacteroides distasonis
# test.details: growth AUC relative to DMSO control (median of replicates) (fraction); higher = more growth (less inhibition), active = hit call of the paper;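 active = AUC reduced over 20% with Padj below 0.05 in at least 2 of 3 replicates; inactive = otherwise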
# condition.info: 20 µM; 24 h
Select the matching outcome among class 1 for active, class 0 for inactive

# example entries with known answers
>  <compound>
CCOc1ccccc1OS(=O)(=O)NC(=O)Nc1nc(OC)cc(OC)n1

>  <tgt>
Parabacteroides distasonis

>  <category>
class 0

$$$$
>  <compound>
Cc1c(COC(=O)[C@@H]2[C@H](/C=C(\Cl)C(F)(F)F)C2(C)C)cccc1-c1ccccc1

>  <tgt>
Parabacteroides distasonis

>  <category>
class 0

$$$$
>  <compound>
CNC(=O)Oc1cc(C)cc(C(C)C)c1

>  <tgt>
Parabacteroides distasonis

>  <category>
class 0

$$$$
>  <compound>
Clc1cccc(C(Cl)(Cl)Cl)n1

>  <tgt>
Parabacteroides distasonis

>  <category>
class 0

$$$$
>  <compound>
ClCC1C(CCl)C2(Cl)C(Cl)=C(Cl)C1(Cl)C2(Cl)Cl (configuration not stated)

>  <tgt>
Parabacteroides distasonis

>  <category>
class 0

$$$$

What did the test return for COc1cnc(OC)n2nc(NS(=O)(=O)c3c(OCC(F)F)cccc3C(F)(F)F)nc12 ? class 0

Identify the outcome logged in this assay for the compound shown: COP(=S)(OC)SCN1C(=O)c2ccccc2C1=O class 0

How was CCc1cnc(C2=NC(C)(C(C)C)C(=O)N2)c(C(=O)O)c1 (configuration not stated) classified in this test? class 0

Hi, do you know how CCCSP(=S)(OCC)Oc1ccc(Cl)cc1Cl (configuration not stated) came out in this test? class 0

What call does the record list for CCCC1COC(Cn2cncn2)(c2ccc(Cl)cc2Cl)O1 (configuration not stated) ? class 0

# lookup: test call for O=C(NC(=O)c1c(F)cccc1F)Nc1cc(Cl)c(OC(F)(F)C(F)F)c(Cl)c1 class 0

Assay outcome for CC(C)(C)c1cc([N+](=O)[O-])cc([N+](=O)[O-])c1O : what was it? class 0

----------
# Tested on: Lactobacillus paracasei
# test.details: growth AUC relative to DMSO control (median of replicates) (fraction); higher = more growth (less inhibition), active = hit call of the paper
# condition.info: 20 µM; 24 h
measure.name: growth AUC

Form field - read-out: growth AUC; system: Lactobacillus paracasei; submitted item: CC1=C(C(=O)Nc2ccccc2)S(=O)(=O)CCO1 0.981 (inactive)

What reported growth AUC corresponds to CC(=O)O.CCCCCCCCCCCCN=C(N)N on Lactobacillus paracasei? 1.02 (inactive)

Give growth AUC (Lactobacillus paracasei) of the following compound: NCCO.O=C(O)c1nc(Cl)ccc1Cl 1.02 (inactive)

Param readout = growth AUC; param system = Lactobacillus paracasei; param query = COP(=O)(OC)Oc1ccc(SC)c(C)c1 ; response: value 1 (inactive)

Test system Lactobacillus paracasei; read-out growth AUC; what value for COP(=O)(OC)Oc1ccc(S(C)(=O)=O)c(C)c1 ? 0.971 (inactive)

Lab note: need growth AUC for CNC(=O)O/N=C/C(C)(C)SC on Lactobacillus paracasei, anyone have it? 0.99 (inactive)

----------
Reported growth AUC by item:
# Test system: Roseburia intestinalis
# test.details: growth AUC relative to DMSO control (median of replicates) (fraction); higher = more growth (less inhibition), active = hit call of the paper
# condition.info: 20 µM; 24 h
Give your answer as a number; write no unit.

>  <compound>
Cc1cc(Cl)ccc1OC(C)C(=O)O (stereo not given)

>  <measure.name>
growth AUC

>  <measured.number>
1.03

$$$$
>  <compound>
Cc1cc(Cl)ccc1N=CN(C)C.Cl

>  <measure.name>
growth AUC

>  <measured.number>
0.994

$$$$
>  <compound>
Cc1ccc(NC(=O)N(C)C)cc1Cl

>  <measure.name>
growth AUC

>  <measured.number>
1.02

$$$$
>  <compound>
COP(=S)(OC)Oc1ccc(C#N)cc1

>  <measure.name>
growth AUC

>  <measured.number>
1.06

$$$$
>  <compound>
O=CNC(N1CCN(C(NC=O)C(Cl)(Cl)Cl)CC1)C(Cl)(Cl)Cl (stereo not given)

>  <measure.name>
growth AUC

>  <measured.number>
0.934

$$$$

growth AUC lookup needed for NC(=O)/N=C1/SCCN1Cc1ccc(Cl)nc1 , thanks. 0.989

Which growth AUC is reported for this compound? COC(=O)Nc1cccc(OC(=O)Nc2cccc(C)c2)c1 0.936

----------
# Tested on: Collinsella aerofaciens
# test.details: growth AUC relative to DMSO control (median of replicates) (fraction); higher = more growth (less inhibition), active = hit call of the paper
# condition.info: 20 µM; 24 h
The reader will find reported growth AUC values listed item by item below.
Output: the number by itself.

>  <query.smiles>
CCOP(=O)(OCC)O/C(=C\Cl)c1ccc(Cl)cc1Cl

>  <measure.name>
growth AUC

>  <measured.number>
1

$$$$
>  <query.smiles>
CCCCOC(=O)N(C)SN(C)C(=O)Oc1cccc2c1OC(C)(C)C2

>  <measure.name>
growth AUC

>  <measured.number>
1.01

$$$$
>  <query.smiles>
CC1(C(=O)Nc2ccc(O)c(Cl)c2Cl)CCCCC1

>  <measure.name>
growth AUC

>  <measured.number>
0.995

$$$$
>  <query.smiles>
CS/C(C)=N/OC(=O)N(C)SN(C)C(=O)O/N=C(\C)SC

>  <measure.name>
growth AUC

>  <measured.number>
0.932

$$$$
>  <query.smiles>
CO/N=C(/C(=O)OC)c1ccccc1CO/N=C(\C)c1cccc(C(F)(F)F)c1

>  <measure.name>
growth AUC

>  <measured.number>
0.993

$$$$
>  <query.smiles>
CCOP(=S)(OCC)Oc1ccc2c(C)c(Cl)c(=O)oc2c1

>  <measure.name>
growth AUC

>  <measured.number>
1

$$$$
>  <query.smiles>
CNC(=O)N(C)c1nc2ccccc2s1

>  <measure.name>
growth AUC

>  <measured.number>
0.995

$$$$
>  <query.smiles>
c1nc[n]([Sn]([CH]2CCCCC2)([CH]2CCCCC2)[CH]2CCCCC2)n1

>  <measure.name>
growth AUC

>  <measured.number>
0.814

$$$$

Lab note: next molecule to report on.
Need growth AUC, item CCOP(=S)(OCC)Oc1ccc(=O)n(-c2ccccc2)n1 0.99

----------
Some molecules, each annotated with its measured growth AUC.
# Tested on: Escherichia coli IAI1
# test.details: growth AUC relative to DMSO control (median of replicates) (fraction); higher = more growth (less inhibition), active = hit call of the paper
# condition.info: 20 µM; 24 h
Response field accepts a number only; no unit should be typed.

Guide cases for growth AUC, answers given:
>  <query.smiles>
CCCCN(CCCC)SN(C)C(=O)Oc1cccc2c1OC(C)(C)C2

>  <measure.name>
growth AUC

>  <measured.number>
1.01

$$$$
>  <query.smiles>
Cc1ccc(N=CN(C)C=Nc2ccc(C)cc2C)c(C)c1

>  <measure.name>
growth AUC

>  <measured.number>
1.01

$$$$

Now consider a different molecule.
Look up growth AUC: Clc1ccc(Cl)cc1 1

----------
# Tested on: Bacteroides caccae
# test.details: growth AUC relative to DMSO control (median of replicates) (fraction); higher = more growth (less inhibition), active = hit call of the paper;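 active = AUC reduced over 20% with Padj below 0.05 in at least 2 of 3 replicates; inactive = otherwise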
# condition.info: 20 µM; 24 h
Mark one answer only. Choices: active, inactive

Solved entries:
>  <compound>
O=C(NC(=O)c1c(F)cccc1F)Nc1ccc(CO/N=C(\c2ccc(Cl)cc2)C2CC2)cc1

>  <category>
inactive

$$$$
>  <compound>
Nc1ccncc1

>  <category>
inactive

$$$$

Recorded call for CCOP(=S)(OCC)SCSP(=S)(OCC)OCC ? inactive

Test call for this compound, please: OC(c1ccc(F)cc1)(c1cncnc1)c1ccccc1Cl (stereo unspecified) inactive

Could you kindly confirm the outcome this assay logged for Cc1c(COC(=O)[C@@H]2[C@H](/C=C(\Cl)C(F)(F)F)C2(C)C)cccc1-c1ccccc1 ? inactive

# lookup: test call for CCCCc1c(C)nc(N(C)C)[nH]c1=O inactive

Recorded test outcome, item CCOP(=S)(OCC)SCSC(C)(C)C inactive

Per the assay record, what outcome was assigned to CC(C)=CC1C(C(=O)OCc2coc(Cc3ccccc3)c2)C1(C)C (stereo unspecified) ? inactive

What is the recorded call for this compound in the test? CN(C)C(=O)Nc1cccc(OC(=O)NC(C)(C)C)c1 inactive

Name the outcome recorded for CN(C)C1CSSSC1.O=C(O)C(=O)O in the assay. inactive

Call for entry O=C(Nc1ccccc1)Nc1cnns1 : inactive

Field: outcome | Entry: CCOP(=S)(OCC)Oc1ccc(S(C)=O)cc1 (stereo unspecified) inactive

Check the results log: what was the call for CCOP(=S)(OCC)Oc1cc(C)nc(N(CC)CC)n1 ? inactive

# lookup: test call for Oc1ccccc1Cl inactive

Name the outcome recorded for CN(C)C(=O)C(c1ccccc1)c1ccccc1 in the assay. inactive

For this compound, state the assay outcome: COc1nc(C)nc(NC(=O)NS(=O)(=O)c2ccccc2CCC(F)(F)F)n1 inactive

State the result this test recorded for CCOC(=O)C(O)(c1ccc(Cl)cc1)c1ccc(Cl)cc1 . inactive

Status in this test for COc1c(Cl)ccc(Cl)c1Cl ? inactive

Dear colleague, could you share the recorded outcome for O=C(NC(=O)c1c(F)cccc1F)Nc1cc(Cl)c(OC(F)(F)C(F)F)c(Cl)c1 when you have a moment? inactive

Identify the outcome logged in this assay for the compound shown: O=[N+]([O-])c1ccc2ccc3cccc4ccc1c2c34 active

Hi, sorry to bother you, what did the test record for O=P(O)(O)CCCl ? inactive

Which outcome did this test record for the compound CC1(C)C(C=C(Cl)Cl)C1C(=O)OC(C#N)c1cccc(Oc2ccccc2)c1 (stereo unspecified) ? inactive
